Listing of recorded ratio of amounts bound (vs GLS3000) by entry.
Biological target: CD3ε homodimer protein (human, UniProt P07766 23-126, limits assumed)
Sequence (P07766 23-126 limits assumed): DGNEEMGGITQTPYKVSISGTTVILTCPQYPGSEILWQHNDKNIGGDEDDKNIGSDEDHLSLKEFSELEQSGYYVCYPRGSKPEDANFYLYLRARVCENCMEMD
Assay: SPR, immobilized CD3ε homodimer;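 note: biacore T200 surface plasmon resonance at 25 °C, antibody variants flowed as analytes over amine-coupled CD3ε homodimer on a CM4 chip, variant binding amount divided by that of GLS3000 antibody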
I only need the number, thanks.

- binder: "GLS3000 N53F (antibody, name in Kabat numbering, V domains shown, one-arm format as m2) VH: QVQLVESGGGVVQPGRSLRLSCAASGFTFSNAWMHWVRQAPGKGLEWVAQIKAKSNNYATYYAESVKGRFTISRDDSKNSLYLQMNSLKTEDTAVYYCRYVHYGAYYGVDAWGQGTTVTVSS VL: DIVMTQSPLSLPVTPGEPASISCRSSQSLVHSNRNTYLHWYQQKPGQAPRLLIYKVSFRFSGVPDRFSGSGSGTDFTLKISRVEAEDVGVYYCGQGTQVPYTFGQGTKLEIK"
  ratio of amounts bound (vs GLS3000): 0.69
- binder: "GLS3000 K107E (antibody, name in Kabat numbering, V domains shown, one-arm format as m2) VH: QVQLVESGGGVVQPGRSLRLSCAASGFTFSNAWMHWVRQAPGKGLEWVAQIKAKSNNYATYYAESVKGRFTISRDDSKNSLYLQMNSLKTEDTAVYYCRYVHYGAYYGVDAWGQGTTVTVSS VL: DIVMTQSPLSLPVTPGEPASISCRSSQSLVHSNRNTYLHWYQQKPGQAPRLLIYKVSNRFSGVPDRFSGSGSGTDFTLKISRVEAEDVGVYYCGQGTQVPYTFGQGTKLEIE"
  ratio of amounts bound (vs GLS3000): 0.94
- binder: "GLS3000 N53T (antibody, name in Kabat numbering, V domains shown, one-arm format as m2) VH: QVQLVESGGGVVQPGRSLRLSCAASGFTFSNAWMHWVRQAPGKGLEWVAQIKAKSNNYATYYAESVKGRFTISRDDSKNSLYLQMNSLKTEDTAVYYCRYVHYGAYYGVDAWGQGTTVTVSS VL: DIVMTQSPLSLPVTPGEPASISCRSSQSLVHSNRNTYLHWYQQKPGQAPRLLIYKVSTRFSGVPDRFSGSGSGTDFTLKISRVEAEDVGVYYCGQGTQVPYTFGQGTKLEIK"
  ratio of amounts bound (vs GLS3000): 0.56
- binder: "GLS3000 F55Q (antibody, name in Kabat numbering, V domains shown, one-arm format as m2) VH: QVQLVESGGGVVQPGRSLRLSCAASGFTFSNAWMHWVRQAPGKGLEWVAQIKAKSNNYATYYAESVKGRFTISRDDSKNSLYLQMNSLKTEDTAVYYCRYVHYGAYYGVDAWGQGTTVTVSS VL: DIVMTQSPLSLPVTPGEPASISCRSSQSLVHSNRNTYLHWYQQKPGQAPRLLIYKVSNRQSGVPDRFSGSGSGTDFTLKISRVEAEDVGVYYCGQGTQVPYTFGQGTKLEIK"
  ratio of amounts bound (vs GLS3000): 0.91

[Q] Item under review: GLS3000 N53L (antibody, name in Kabat numbering, V domains shown, one-arm format as m2) VH: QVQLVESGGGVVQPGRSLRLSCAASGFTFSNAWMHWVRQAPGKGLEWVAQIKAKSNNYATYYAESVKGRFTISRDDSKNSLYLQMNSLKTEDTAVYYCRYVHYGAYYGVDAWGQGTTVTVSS VL: DIVMTQSPLSLPVTPGEPASISCRSSQSLVHSNRNTYLHWYQQKPGQAPRLLIYKVSLRFSGVPDRFSGSGSGTDFTLKISRVEAEDVGVYYCGQGTQVPYTFGQGTKLEIK . Reported ratio of amounts bound (vs GLS3000)?
[A] 0.56
